src = patent US20140056903A1

# pKd values compiled below
measured.on: T1, human GFRα3 expressed with a C-terminal mFc tag (human)
T1 construct: also called hGFRα3-mFc
T1 chain: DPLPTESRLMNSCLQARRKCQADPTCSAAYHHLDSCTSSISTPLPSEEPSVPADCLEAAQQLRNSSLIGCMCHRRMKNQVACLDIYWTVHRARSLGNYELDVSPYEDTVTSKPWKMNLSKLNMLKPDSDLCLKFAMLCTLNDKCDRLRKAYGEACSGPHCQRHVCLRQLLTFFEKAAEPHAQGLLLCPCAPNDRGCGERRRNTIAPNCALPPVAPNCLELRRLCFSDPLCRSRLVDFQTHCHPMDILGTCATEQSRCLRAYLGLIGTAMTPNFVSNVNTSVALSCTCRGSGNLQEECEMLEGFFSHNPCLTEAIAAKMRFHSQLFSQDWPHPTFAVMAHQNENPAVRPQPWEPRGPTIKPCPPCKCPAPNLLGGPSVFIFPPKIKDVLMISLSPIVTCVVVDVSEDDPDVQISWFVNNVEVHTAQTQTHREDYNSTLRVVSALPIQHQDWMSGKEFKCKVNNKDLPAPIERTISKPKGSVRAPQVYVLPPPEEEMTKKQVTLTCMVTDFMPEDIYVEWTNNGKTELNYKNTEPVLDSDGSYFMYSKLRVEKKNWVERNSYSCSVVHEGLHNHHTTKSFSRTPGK
experiment.summary: SPR, Ab captured, 25C
The scale used: pKd is minus the common logarithm of the concentration in molar units.

Guide cases for pKd, answers given:
binder="H4H2295S (antibody, human IgG4, V domains shown, human IgG4 Fc (H4H)) VH: EVQLVESGGGLVQAGGSLRLSCVASGFTFSSYAMSWVRQAPGKGLEWVSAISGSGGSTYSADSVKGRFTISRDNSKNTLYLQMNSLRAEDTAVYYCTKPSSYSSSNFYYGMDVWGQGTTVTVSS VL: DIQMTQSPSSVSASVGDRVTITCRASQGISSWLAWYQQKPGKAPKLLIYTASSLQSGVPSRFSGSGSRTDFTLTISSLQPEDFATYYCQQTNSLPLTFGPGTKVEIK" recorded_result=11.80
binder="H4H2350P (antibody, human IgG4, V domains shown, human IgG4 Fc (H4H)) VH: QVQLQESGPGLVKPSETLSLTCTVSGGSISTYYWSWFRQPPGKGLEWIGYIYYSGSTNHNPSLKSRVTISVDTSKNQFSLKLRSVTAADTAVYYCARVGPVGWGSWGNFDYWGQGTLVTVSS VL: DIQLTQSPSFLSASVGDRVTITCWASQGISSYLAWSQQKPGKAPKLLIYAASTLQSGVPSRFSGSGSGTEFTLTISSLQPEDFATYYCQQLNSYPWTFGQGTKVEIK" recorded_result=10.38
binder="H4H2357S (antibody, human IgG4, V domains shown, human IgG4 Fc (H4H)) VH: EVQLVESGGGLVQPGGSLRLSCAASTFTFSSYAMTWVRQAPGKGLEWVSSISGSGDSTYYADSVKGRFTISRDNSKNTLFLQMNSLRAEDTAVYYCAKKDGPGRYYVRYGMDVWGQGTTVTVSS VL: DIQMTQSPSSVSASVGDRVTITCRASQGISSWLAWYQQKPGKAPKLLIYTTSSLQSGVPSRFSGSGSGTDFTLTISSLQPEDFATYYCQQANSFPLTFGGGTKVDIK" recorded_result=10.49
binder="H4H2344S (antibody, human IgG4, V domains shown, human IgG4 Fc (H4H)) VH: EVQLVESGGGVVQPGRSLRLSCAASGFSFSDYVMHWVRQAPGKGLEWVASIWFDGSNEFYADSVKGRFTISRDNSKNTLFLQMNSLRAEDTAVYYCAKKGVLVATSAFDIWGQGTMVTVSS VL: DIQMTQSPSSLSASVGDRVTITCRASQSINNYLNWYHQKPGKAPKLLIYAASSLQSGVPSRFSGSGSGTDYTLTISSLQPEDFGNYYCQQSYRTSMYTFGQGTKVEIK" recorded_result=11.57
binder="H4H2291S (antibody, human IgG4, V domains shown, human IgG4 Fc (H4H)) VH: EVQLVESGGGLVQPGESLRLSCAASGFTFSNYAMSWVRQAPGKGLEWVSVISGSGGSTYYADSVKGRFTMSRDNSKNTLYLQMNSLRAEDTAVYYCAKPPSRAARYFNYGMDVWGQGTTVTVSS VL: AIRMTQSPSSVSASVGDRVTITCRASQGISSWLAWYQQKPGKAPKLLIYAASSLQSGVPSRFSGSGSGTDFTLTISSLQPEDFATYYCQQANSFPFTFGGGTKVEIK" recorded_result=11.33

Ask: Please give measured pKd of the following entry: H4H2294S (antibody, human IgG4, V domains shown, human IgG4 Fc (H4H)) VH: EVQLVESGGGLVQPGGSLRLSCAASGFTFSSYAMSWVRQAPGKGLEWVSVISGSGGSTYYADAVKGRFTISRDNSKHTLYLQMNSLRAEDTAVYYCTKPSSYSSSNFYYGMDVWGQGSTVTVSS VL: DIQLTQSPSSVSASVGDRVTITCRASQGISSWLAWYQQKPGKAPKLLIYAASSLQSGVPSRFSGSGSGTDFTLTISSLQPEDFATYYCQQTNSFPFPFGPGTKVDIK
Result: 11.33

Ask: Please give measured pKd of the following entry: H4H2354S (antibody, human IgG4, V domains shown, human IgG4 Fc (H4H); also called H4H2354S-1) VH: QVQLVESGGGVVQPGRSLRLSCAASGFSFSDYVMHWVRQAPGKGLEWVASIWFDGSNEFYADSVKGRFTISRDNSKNTLFLQMNSLRAEDTAVYYCAKKGVLVATSAFDIWGQGTMVTVSS VL: DIQLTQSPSSLSASVGDRVTITCRASQSINNYLNWYHQKPGKAPKLLIYAASSLQSGVPSRFSGSGSGTDYTLTISSLQPEDFGNYYCQQSYRTSMYTFGQGTKVEIK
Result: 10.72
